Data origin, for the record: ChEMBL document CHEMBL5223095

Tested on: Escherichia coli
measurement_protocol: Antibacterial activity against Escherichia coli ATCC 25922 assessed as bacterial growth inhibition by CLSI protocol agar-based assay
Assay type: functional
result_type: MIC

Below: 5 compounds and their reported MIC.
compound_string	reported_result
CNC(=O)Cn1c(=O)ccc2ncc(F)c(CCC34CCC(NCc5ccc6c(n5)NC(=O)CO6)(CC3)CO4)c21	32 µg/mL
O=C1COc2ccc(CNC34CCC(CCc5ccnc6ccc(=O)n(CCO)c56)(CC3)OC4)nc2N1	8 µg/mL
O=c1ccc2ncc(F)c(C[C@H](O)C34CCC(NCc5cc6c(cn5)OCCO6)(CC3)CO4)c2n1CCO	128 µg/mL
O=c1ccc2ncc(F)c(CCC34CCC(NCc5cnc(-c6ccncc6)s5)(CC3)CO4)c2n1CCO	> 32 µg/mL
CN(C)CCn1c(=O)ccc2ncc(F)c(CCC34CCC(NCc5ccc6c(n5)NC(=O)CO6)(CC3)CO4)c21	1 µg/mL

State, in one line, measured MIC of "O=c1ccc2ncc(F)c(CCC34CCC(NC/C=C/c5cc(F)ccc5F)(CC3)CO4)c2n1CCO"
2 µg/mL

Identify the reported MIC for the following entry. "NC(=O)Cn1c(=O)ccc2ncc(F)c(CCC34CCC(NCc5ccc6c(n5)NC(=O)CO6)(CC3)CO4)c21"
32 µg/mL

Provide one value: measured MIC of "O=C1COc2ccc(CNC34CCC(CCc5c(F)cnc6ccc(=O)n(CCO)c56)(CC3)OC4)nc2N1"
2 µg/mL

* * *

System: Escherichia coli
measurement_protocol: Antibacterial activity against Escherichia coli ATCC 25922 assessed as bacterial growth inhibition by CLSI protocol agar-based assay
Type: functional
result_type: log10 MIC (log10 of the value in µg/mL)
Scale: decimal log of MIC, MIC in µg/mL.

Completed entries (count: 4):
compound_string	assay_system	reported_result
C[C@H]1CCc2cc(CNC34CCC(CCc5c(F)cnc6ccc(=O)n(CCO)c56)(CC3)OC4)ncc2O1	Escherichia coli	1.81
O=c1ccc2ncc(F)c(CCC34CCC(NCc5ccc6nsnc6c5)(CC3)CO4)c2n1CCO	Escherichia coli	1.51
COc1ccc2ncc(F)c(CCC34CCC(NCc5ccc6c(n5)NC(=O)CO6)(CC3)CO4)c2n1	Escherichia coli	0.00
O=c1ccc2ncc(F)c(CCC34CCC(NCc5cc6c(cn5)OCCO6)(CC3)CO4)c2n1CCO	Escherichia coli	1.20

Now consider the entry below.
Report measured log10 MIC; entry is "O=c1ccc2ncc(F)c(CCC34CCC(NCc5cc6c(cn5)OCCC6)(CC3)CO4)c2n1CCO"
0.90

* * *

System: Pseudomonas aeruginosa
measurement_protocol: Antibacterial activity against Pseudomonas aeruginosa PAO1 assessed as bacterial growth inhibition by CLSI protocol agar-based assay
Format: functional
result_type: MIC

Take a look at these entries with their results.
compound_string	assay_system	MIC
O=c1ccc2ncc(F)c(CCC34CCC(NC[C@@H]5C[C@H]5c5cc(F)ccc5F)(CC3)CO4)c2n1CCO	Pseudomonas aeruginosa	> 64 µg/mL
COc1ccc2nc(CNC34CCC(CCc5c(F)cnc6ccc(=O)n(CCO)c56)(CC3)OC4)c(F)c(C)c2n1	Pseudomonas aeruginosa	32 µg/mL
O=C1COc2ccc(CNC34CCC(CCc5c(F)cnc6ccc(=O)n(CCN7CCOCC7)c56)(CC3)OC4)nc2N1	Pseudomonas aeruginosa	> 16 µg/mL

Consider the molecule "O=c1ccc2ncc(F)c(CCC34CCC(NCc5cc(-c6cccs6)on5)(CC3)CO4)c2n1CCO" and give its recorded MIC.
> 64 µg/mL

* * *

# key: entry, value: MIC
Test system: Pseudomonas aeruginosa
measurement_protocol: Antibacterial activity against Pseudomonas aeruginosa PAO1 assessed as bacterial growth inhibition by CLSI protocol agar-based assay
Type: functional
Return type: number; implicit unit µg/mL.

Here is how some compounds turned out for MIC.
compound_string	reported_result
NC(=O)Cn1c(=O)ccc2ncc(F)c(CCC34CCC(NCc5ccc6c(n5)NC(=O)CO6)(CC3)CO4)c21	16
O=c1ccc2ncc(F)c(CCC34CCC(NC/C=C/c5cc(F)ccc5F)(CC3)CO4)c2n1CCO	8
O=C1COc2ccc(CNC34CCC(CCc5ccnc6ccc(=O)n(CCO)c56)(CC3)OC4)nc2N1	32

Using Pseudomonas aeruginosa as the test system, report measured MIC of "CCOC(=O)Cn1c(=O)ccc2ncc(F)c(CCC34CCC(NCc5ccc6c(n5)NC(=O)CO6)(CC3)CO4)c21" .
32

* * *

// MIC lookup, one value per entry
Test system: Escherichia coli
measurement_protocol: Antibacterial activity against Escherichia coli ATCC 25922 assessed as bacterial growth inhibition by CLSI protocol agar-based assay
Format: functional
Write the number in µg/mL without appending the unit.

Given "O=c1ccc2ncc(F)c(CCC34CCC(NCc5csc(-c6cccs6)n5)(CC3)CO4)c2n1CCO" , respond with its MIC.
64

State its MIC: "CS(=O)(=O)NCCn1c(=O)ccc2ncc(F)c(CCC34CCC(NCc5ccc6c(n5)NC(=O)CO6)(CC3)CO4)c21"
16

Dear colleague, please send me the reported MIC for "N#CCn1c(=O)ccc2ncc(F)c(CCC34CCC(NCc5ccc6c(n5)NC(=O)CO6)(CC3)CO4)c21" when you can.
1

Identify measured MIC associated with "O=C1COc2ccc(CNC34CCC(CCc5c(F)cnc6ccc(=O)n(C/C=N/O)c56)(CC3)OC4)nc2N1"
4

* * *

Test system: Pseudomonas aeruginosa
measurement_protocol: Antibacterial activity against Pseudomonas aeruginosa PAO1 assessed as bacterial growth inhibition by CLSI protocol agar-based assay
Type: functional
List of MIC values.
Kindly provide the numeric value in µg/mL only, without the unit symbol.

compound_string	unit_annotation	reported_result
N#Cc1cnc2ccc(=O)n(CCO)c2c1CCC12CCC(NCc3ccc4c(n3)NC(=O)CO4)(CC1)CO2	µg/mL	16

// Input: "O=c1ccc2ncc(F)c(CCC34CCC(NCCCc5cc(F)ccc5F)(CC3)CO4)c2n1CCO" . Output its MIC only.
64

* * *

Item-by-item account of MIC
Tested on: Pseudomonas aeruginosa
measurement_protocol: Antibacterial activity against Pseudomonas aeruginosa PAO1 assessed as bacterial growth inhibition by CLSI protocol agar-based assay
Assay type: functional

compound_string	MIC
O=c1ccc2ncc(F)c(CCC34CCC(NCc5cnc(-c6cccnc6)s5)(CC3)CO4)c2n1CCO	> 32 µg/mL

Report MIC, nothing else, for this compound: "C[C@H]1CCc2cc(CNC34CCC(CCc5c(F)cnc6ccc(=O)n(CCO)c56)(CC3)OC4)ncc2O1"
> 64 µg/mL

Supply measured MIC of "O=c1ccc2ncc(F)c(CCC34CCC(NCc5csc(-c6cccs6)n5)(CC3)CO4)c2n1CCO" in your reply.
> 32 µg/mL

Return value of MIC for input "O=C1COc2ccc(CNC34CCC(CCc5c(F)cnc6ccc(=O)n(CCO)c56)(CC3)OC4)nc2N1" , no commentary.
8 µg/mL

Indicate the recorded MIC value for this compound: "O=c1ccc2ncc(F)c(CCC34CCC(NCc5cnc(-c6ncccn6)s5)(CC3)CO4)c2n1CCO"
> 32 µg/mL

Recall and state the measured MIC for "O=c1ccc2ncc(F)c(CCC34CCC(NCc5ccc6nonc6c5)(CC3)CO4)c2n1CCO" .
> 64 µg/mL

* * *

Test system: Pseudomonas aeruginosa
measurement_protocol: Antibacterial activity against Pseudomonas aeruginosa PAO1 assessed as bacterial growth inhibition by CLSI protocol agar-based assay
Format: functional
Listed here: items and their measured MIC.
Please give a number only; it is taken to be in µg/mL.

Worked cases, answers included:
compound_string	unit_annotation	MIC
O=C1COc2ccc(CNC34CCC(CCc5c(F)cnc6ccc(=O)n(C/C=N/O)c56)(CC3)OC4)nc2N1	µg/mL	8
CNC(=O)Cn1c(=O)ccc2ncc(F)c(CCC34CCC(NCc5ccc6c(n5)NC(=O)CO6)(CC3)CO4)c21	µg/mL	32
O=c1ccc2ncc(F)c(C[C@H](O)C34CCC(NC/C=C/c5cc(F)ccc5F)(CC3)CO4)c2n1CCO	µg/mL	64
N#CCn1c(=O)ccc2ncc(F)c(CCC34CCC(NCc5ccc6c(n5)NC(=O)CO6)(CC3)CO4)c21	µg/mL	4

Field: next molecule
Answer with the recorded MIC for the molecule listed here: "O=C1COc2ccc(CNC34CCC([C@@H](O)Cc5c(F)cnc6ccc(=O)n(CCO)c56)(CC3)OC4)nc2N1"
16

* * *

Test system: Escherichia coli
measurement_protocol: Antibacterial activity against Escherichia coli ATCC 25922 assessed as bacterial growth inhibition by CLSI protocol agar-based assay
Assay type: functional
# MIC per record follows
Give the value, in units of µg/mL, as a plain number.

compound_string	MIC / µg/mL
O=C1COc2ccc(CNC34CCC([C@@H](O)Cc5c(F)cnc6ccc(=O)n(CCO)c56)(CC3)OC4)nc2N1	32

Tell me its MIC given "O=c1ccc2ncc(=O)n3c2n1C[C@H]3CN1CCC(NCc2cc3c(cn2)OCCC3)CC1" as the entry.
2

Annotate the compound "CCOC(=O)Cn1c(=O)ccc2ncc(F)c(CCC34CCC(NCc5ccc6c(n5)NC(=O)CO6)(CC3)CO4)c21" with its measured MIC.
8

For "O=C1COc2ccc(CNC34CCC(C[C@]5(O)Cn6c(=O)ccc7ncc(F)c5c76)(CC3)OC4)nc2N1" , write its MIC.
4

Please give the documented MIC of "O=c1ccc2ncc(F)c(C[C@H](O)C34CCC(NC/C=C/c5cc(F)ccc5F)(CC3)CO4)c2n1CCO"
16

Please give the documented MIC of "COc1ccc2ncc(F)c(C[C@H](O)C34CCC(NCc5ccc6c(n5)NC(=O)CO6)(CC3)CO4)c2n1"
2

Look up MIC of "O=c1ccc2ncc(F)c(CCC34CCC(NCCCc5cc(F)ccc5F)(CC3)CO4)c2n1CCO" and report it.
16

Read the entry "O=c1ccc2ncc(F)c(CCC34CCC(NC[C@@H]5C[C@H]5c5cc(F)ccc5F)(CC3)CO4)c2n1CCO" and write its reported MIC.
64

Fill in reported MIC for this entry: "N#Cc1cnc2ccc(=O)n(CCO)c2c1CCC12CCC(NCc3ccc4c(n3)NC(=O)CO4)(CC1)CO2"
4
